testedTarget: human IL-13 wild type (human, UniProt P35225 35-146)
Sequence (P35225 other isoform, or with tags, fused parts or gaps limits assumed): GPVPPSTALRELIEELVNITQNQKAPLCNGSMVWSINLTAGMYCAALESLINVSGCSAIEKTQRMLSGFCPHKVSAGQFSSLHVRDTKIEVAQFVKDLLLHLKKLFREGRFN
procedureSummary: cell-based or functional assay
In this section, each of the binders is paired with its reported Potency (IC50), A-549 bioassay.
Please answer using the number first and the unit second.

Sample answers from the record:
5G1.1 (antibody, human IgG1, V domains shown, Humanized) VH: EVQLVQSGAEVKKPGASVKVSCKASGYTFTTYGVSWVRQAPGQGLEWIGEIYPGNYNTYYNEKFRGKATMTTDTSTSTAYMELRSLRSDDTAVYYCSRWRTSYFSDYGYFDYWGQGTTVTVSS VL: DVVMTQSPLSLPVTLGQPASISCRSSQSLVHSHGNTYLHWYQQRPGQSPRLLIYTVSNRFSGVPDRFSGSGSGTDFTLKISRVEAEDVGVYYCSQSTHVPYTFGGGTKVEIKR; 29 pM
5G1-Chim (antibody, V domains shown, also called chimeric 5G1) VH: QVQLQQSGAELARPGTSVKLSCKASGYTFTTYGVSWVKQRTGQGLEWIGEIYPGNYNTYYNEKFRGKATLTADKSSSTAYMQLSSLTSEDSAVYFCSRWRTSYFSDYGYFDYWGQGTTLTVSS VL: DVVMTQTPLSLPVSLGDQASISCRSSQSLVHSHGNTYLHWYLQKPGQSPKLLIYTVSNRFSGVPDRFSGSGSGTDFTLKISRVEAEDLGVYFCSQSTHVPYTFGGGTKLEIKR; 76.9 pM
13C5.2 (antibody, human IgG1, V domains shown, Humanized) VH: EVTLKESGPVLVKPTETLTLTCTFSGFSLSTSDMGVDWIRQPPGKALEWLAHIWWDDVKRYNPALKSRLTISKDTSKSQVVLTMTNMDPVDTATYYCARTVSSGYIYYAMDYWGQGTTVTVSS VL: DIQMTQTPSSLSASVGDRVTISCRASQDIRNYLNWYQRKPGKVVKLLIFYTSKLHSGVPSRFSGSGSGTDYTLTISSLQPEDVATYFCQQGNTLPLTFGGGTKVEIKR; 193 pM
13C5.5 (antibody, human IgG1, V domains shown, Humanized; The light chain row is printed 'VL 1305.5'; also called humanized 13C5; recombinant humanized antibody 13C5.5) VH: EVTLRESGPGLVKPTQTLTLTCTLYGFSLSTSDMGVDWIRQPPGKGLEWLAHIWWDDVKRYNPALKSRLTISKDTSKNQVVLKLTSVDPVDTATYYCARTVSSGYIYYAMDYWGQGTLVTVSS VL: DIQMTQSPSSLSASVGDRVTISCRASQDIRNYLNWYQQKPGKAPKLLIFYTSKLHSGVPSRFSGSGSGTDYTLTISSLQPEDIATYYCQQGNTLPLTFGGGTKVEIK; 124 pM

**Query** Read the entry 5G1.5 (antibody, human IgG1, V domains shown, Humanized; The heavy chain row is printed 'VN 5G1.5') VH: QVQLVQSGAEVKKPGASVKVSCKASGYTFTTYGVSWVRQAPGQGLEWIGEIYPGNYNTYYNEKFRGKATLTADKSTSTAYMELSSLRSEDTAVYYCSRWRTSYFSDYGYFDYWGQGTLVTVSS VL: DIVMTQSPLSLPVTPGQPASISCRSSQSLVHSHGNTYLHWYLQKPGQSPKLLIYTVSNRFSGVPDRFSGSGSGTDFTLKISRVEAEDVGVYYCSQSTHVPYTFGGGTKVEIK and write its reported Potency (IC50), A-549 bioassay.
**Result** 114 pM
